Data origin, for the record: the supplement of paper PMC6992640

System: WHIM30 (cells of a triple-negative basal-like breast cancer xenograft)
Experiment: cell viability (% of vehicle); higher = less cytotoxic
Conditions: 10 µM; 72 h
# cell viability listing for each entry below
Lab note: record the figure alone, no unit after it.

                                   compound  recorded_result
0   Cl.c1ccc(CC2=NCCN2)cc1 [Tolazoline HCl]             87.3
1             Nc1ccc(S(=O)(=O)Nc2ccccn2)cc1              120
2  CNC(=O)c1cc(Oc2ccc(NC(=O)Nc3ccc(Cl)c(C(F)(F)F)c3)cc2)ccn1               37
3        Cl.Nc1ncnc2nc[nH]c12 [Adenine HCl]              101

Now examine the next entry.
stdin: cell viability of N#CC1CCCN1C(=O)CNC12CC3CC(CC(O)(C3)C1)C2 (stereo not given) on WHIM30?
stdout: 141

====

Readings of cell viability for the listed compounds
Tested on: HCI03 (cells of an ER-positive luminal breast cancer xenograft)
Assay: cell viability (% of vehicle); higher = less cytotoxic
Details: 10 µM; 72 h
# answer = number (no unit)

Recorded results for 2 compounds are shown here.
compound	tgt	cell viability
Cc1cc(-n2c(=O)[nH]c(=O)n(C)c2=O)ccc1Oc1ccc(SC(F)(F)F)cc1	HCI03	132
CCN(CC)CC#CCOC(=O)C(O)(c1ccccc1)C1CCCCC1.Cl (centres undefined) [Oxybutynin chloride]	HCI03	170

Shifting focus to the compound that follows.
stdin: Notebook entry, HCI03 assay: cell viability of CCC1=CC2CN(C1)Cc1c([nH]c3ccccc13)C(C(=O)OC)(c1cc3c(cc1OC)N(C)C1C(O)(C(=O)OC)C(OC(C)=O)C4(CC)C=CCN5CCC31C54)C2 (centres undefined) = ?
stdout: 105

====

Test system: UCD52 (cells of a triple-negative basal-like breast cancer xenograft)
Experiment: cell viability (% of vehicle); higher = less cytotoxic
Details: 10 µM; 72 h
measured_endpoint: cell viability
Please reply with the value in numeric form only.

stdin: Recorded cell viability for CCC(=O)OCC(=O)C1(OC(=O)CC)C(C)CC2C3CCC4=CC(=O)C=CC4(C)C3(Cl)C(O)CC21C (centres undefined) [Beclomethasone dipropionate] , please?
stdout: 133

stdin: Param item = Nc1ncnc2c1ncn2C1OC(CO)C(O)C1O (centres undefined) [Vidarabine] ; retrieve measured cell viability.
stdout: 80.5

stdin: Name the recorded cell viability for CN(C)C(=O)NC1CCC(CCN2CCN(c3cccc(Cl)c3Cl)CC2)CC1 (centres undefined) .
stdout: 38.5

stdin: What value of cell viability has been recorded for this entry: CN(C)CC(c1ccc(O)cc1)C1(O)CCCCC1.O.O=C(O)CCC(=O)O (centres undefined) [Desvenlafaxine Succinate]
stdout: 92.4

====

Test system: WHIM2 (cells of a triple-negative basal-like breast cancer xenograft)
Assay: cell viability (% of vehicle); higher = less cytotoxic
Conditions: 10 µM; 72 h
I'd appreciate it if you marked entries class 1 when cell viability is lower than 100 and class 0 when it is not.

Example cases with answers are listed next.
>>> print(df.to_string())
                                   compound  category_label
0  CS(=O)(=O)O.Cc1ccc(NC(=O)c2ccc(CN3CCN(C)CC3)cc2)cc1Nc1nccc(-c2cccnc2)n1 [Imatinib Mesylate (STI571)]         class 1
1  CC(=O)OCC(=O)NCCCOc1cccc(CN2CCCCC2)c1.Cl [Roxatidine Acetate HCl]         class 0
2        Cl.Nc1ncnc2nc[nH]c12 [Adenine HCl]         class 0
3      Nc1nc2ccc(OC(F)(F)F)cc2s1 [Riluzole]         class 0
4  Cc1nnc(SCC2=C(C(=O)[O-])N3C(=O)[C@@H](NC(=O)Cn4cnnn4)[C@H]3SC2)s1.[Na+] [Cefazolin (sodium salt)]         class 0

stdin: Item CNCC(O)c1cccc(O)c1.Cl (stereo not drawn) [Phenylephrine HCl] : cell viability beneath 100, strictly?
stdout: class 1

stdin: Determine whether this compound shows cell viability lower than 100 (ties excluded): CCCSc1ccc2nc(NC(=O)OC)[nH]c2c1 [Albendazole]
stdout: class 0

====

Listed here are compounds together with their documented cell viability.
Test system: WHIM30
Test: cell viability (% of vehicle); higher = less cytotoxic
Conditions: 10 µM; 72 h

                                   compound  recorded_result
0  COc1cc(OC)c(C(=O)CCCN2CCCC2)c(OC)c1.Cl [Buflomedil HCl]              134
1  O=C1Cc2cc(CCN3CCN(c4nsc5ccccc45)CC3)c(Cl)cc2N1              100
2  C#C[C@]1(O)CC[C@H]2[C@@H]3CCC4=CCCC[C@@H]4[C@H]3C(=C)C[C@@]21CC             71.8

# ---- query compound ----
stdin: Query: cell viability; subject: CS(=O)(=O)c1ccc(C(O)C(CO)NC(=O)C(Cl)Cl)cc1 (centres undefined)
stdout: 122

====

Tested on: HCI03
Experiment: cell viability (% of vehicle); higher = less cytotoxic
Conditions: 10 µM; 72 h
measured_endpoint: cell viability
Write no unit; give the number alone.

In the examples that follow, each entry is paired with its recorded cell viability.
                                   compound  recorded_result
0  Cc1cn(-c2cc(/N=C(\O)c3ccc(C)c(Nc4nccc(-c5cnccn5)n4)c3)cc(C(F)(F)F)c2)cn1              142
1  CC1c2cccc(O)c2C(O)=C2C(=O)C3(O)C(O)=C(C(N)=O)C(=O)C(N(C)C)C3C(O)C21.Cl (centres undefined) [Doxycycline HCl]              106
2  COc1ccc(CNc2nc(N3CCCC3CO)ncc2C(=O)NCc2ncccn2)cc1Cl (centres undefined)              117

stdin: Please provide the recorded cell viability for CN(CCOc1ccc(CC2SC(=O)NC2=O)cc1)c1ccccn1.O=C(O)C=CC(=O)O (centres undefined) [Rosiglitazone maleate] , tested on HCI03.
stdout: 115

====

System: HCI09 (cells of a triple-negative luminal androgen receptor type breast cancer xenograft)
Test: cell viability (% of vehicle); higher = less cytotoxic
Conditions: 10 µM; 72 h
A collection of molecules and their measured cell viability
Write the number on its own, no unit after it.

Check out these entries, answers already filled in.
molecule	measured_endpoint	recorded_result
COC(=O)C1=C(C)NC(C)=C(C(=O)OC)C1c1ccccc1[N+](=O)[O-]	cell viability	66.9
COc1ccc(C[C@H](N)C(=O)N[C@@H]2[C@H](O)[C@H](n3cnc4c(N(C)C)ncnc43)O[C@@H]2CO)cc1.Cl.Cl [Puromycin dihydrochloride]	cell viability	26.9
Cc1nc(Nc2ncc(C(=O)Nc3c(C)cccc3Cl)s2)cc(N2CCN(CCO)CC2)n1	cell viability	53.2

stdin: Entry `CC(=O)c1c(C)c2cnc(Nc3ccc(N4CCNCC4)cn3)nc2n(C2CCCC2)c1=O.Cl` has what cell viability?
stdout: 86.1

stdin: What value of cell viability has been recorded for this entry: CC(NCCCc1cccc(C(F)(F)F)c1)c1cccc2ccccc12.Cl (stereo not given) [Cinacalcet HCl]
stdout: 21.6

stdin: Consider the molecule shown here: Cl.N#Cc1ccc2[nH]cc(CCCCN3CCN(c4ccc5oc(C(N)=O)cc5c4)CC3)c2c1 [Vilazodone Hydrochloride] What is its recorded cell viability?
stdout: 104

====

Test system: UCD52
Assay: cell viability (% of vehicle); higher = less cytotoxic
Settings: 10 µM; 72 h
Recorded cell viability for the following compounds
Lab note: jot down the number only; don't add units.

compound	cell viability
CNC(=C[N+](=O)[O-])NCCSCc1ccc(CN(C)C)o1.Cl [Ranitidine]	89.9
CCCc1nc(C(C)(C)O)c(C(=O)O)n1Cc1ccc(-c2ccccc2-c2nn[nH]n2)cc1 [Olmesartan]	121
COc1ccccc1N1CCN(CC(O)COc2cccc3ccccc23)CC1 (stereo not drawn) [Naftopidil]	67.4
CC[C@H](C)[C@@H]1NC(=O)[C@H](Cc2ccc(O)cc2)NC(=O)[C@@H](N)CSSC[C@@H](C(=O)N2CCC[C@H]2C(=O)N[C@@H](CC(C)C)C(=O)NCC(N)=O)NC(=O)[C@H](CC(N)=O)NC(=O)[C@H](CCC(N)=O)NC1=O [Oxytocin]	115

stdin: // fetch UCD52 cell viability for CS(=O)(=O)O.OC(CCN1CCCCC1)(c1ccccc1)c1ccccc1 [Pridinol Methanesulfonate]
stdout: 86.1

stdin: Lab request: please report cell viability under test system UCD52 for CC1=C2N=C(C=C3N=C(C(C)=C4[N-]C(C)(C5N=C1C(C)(CCC(=O)NCC(C)OP(=O)([O-])OC1C(CO)OC(n6cnc7cc(C)c(C)cc76)C1O)C5CC(N)=O)C(C)(CC(N)=O)C4CCC(N)=O)C(C)(CC(N)=O)C3CCC(N)=O)C(C)(C)C2CCC(N)=O.[CH3-].[Co+3] (stereo not drawn) [Methylcobalamin]
stdout: 112

====

Tested on: WHIM2
Assay: cell viability of combination (% of vehicle); higher = less cytotoxic
Conditions: 1 µM; 72 h; partner dose: 10 nM
measured_endpoint: cell viability of combination
The answer should be written as a number, with no unit following it.

compound	recorded_result
CCCCc1oc2ccccc2c1C(=O)c1cc(I)c(OCCN(CC)CC)c(I)c1.Cl [Amiodarone HCl] + CN(C)C/C=C/C(=O)Nc1cc2c(Nc3ccc(F)c(Cl)c3)ncnc2cc1O[C@H]1CCOC1	57.7
CN(C)CC=CC(=O)Nc1cc2c(Nc3ccc(F)c(Cl)c3)ncnc2cc1OC1CCOC1 (stereo not given) [Afatinib (BIBW2992)] + CN(C)C/C=C/C(=O)Nc1cc2c(Nc3ccc(F)c(Cl)c3)ncnc2cc1O[C@H]1CCOC1	32.4
C=CC(=O)N1CCC(Oc2cc3c(Nc4ccc(Cl)c(Cl)c4F)ncnc3cc2OC)CC1 [Poziotinib] + CN(C)C/C=C/C(=O)Nc1cc2c(Nc3ccc(F)c(Cl)c3)ncnc2cc1O[C@H]1CCOC1	22.2
Br.Cc1ccc(Sc2ccccc2N2CCNCC2)c(C)c1 + CN(C)C/C=C/C(=O)Nc1cc2c(Nc3ccc(F)c(Cl)c3)ncnc2cc1O[C@H]1CCOC1	46.7

The record that follows has no cell viability of combination shown yet.
stdin: Give the reported cell viability of combination for CNCCC(Oc1ccc(C(F)(F)F)cc1)c1ccccc1.Cl (stereo not given) [Fluoxetine HCl] + CN(C)C/C=C/C(=O)Nc1cc2c(Nc3ccc(F)c(Cl)c3)ncnc2cc1O[C@H]1CCOC1 (system: WHIM2).
stdout: 43.8
